- Tested on: FXR:RXRa (NR concentration 270 nM, RXRa partner concentration 90 nM)
- Procedure Details: PBM binding z-score (relative to random genomic background probes); higher = stronger binding; sequences stand for … in GC…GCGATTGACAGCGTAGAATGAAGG
# if value of PBM binding z-score reaches 2, tag Yes; if it stays below, tag No

Some solved entries appear below for comparison.
GCTGCTAGTTCAGGTTGGTCAGCTAACGGGTACG :: No
AGAATGAGGTTACCAAGGATCAGGGAAACGCTTG :: No
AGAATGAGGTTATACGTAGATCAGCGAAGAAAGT :: No
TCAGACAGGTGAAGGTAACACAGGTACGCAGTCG :: No

Here's the next entry for you.
Reported PBM binding z-score reaches at least 2 for `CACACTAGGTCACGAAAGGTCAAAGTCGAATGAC` ?
Yes

* * *

- System: PPARg:RXRa 270nM:90nM, anti-RXR (NR concentration 270 nM, RXRa partner concentration 90 nM)
- Procedure Details: PBM binding z-score (relative to random genomic background probes); higher = stronger binding; sequences stand for … in GC…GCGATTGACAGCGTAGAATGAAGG
Quantity Name: PBM binding z-score
Answer with the value's number alone.

Please review the following examples before continuing.
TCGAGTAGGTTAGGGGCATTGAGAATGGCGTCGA :: 1.97
AGGATGAGGTTACCAAAGATCAGGGAAACGCTTG :: 1.76
CCTTACGGGTCACTGACAGGTTATCGCATTTGGA :: 4.36
GCTTGTAGATCAAGGTTTAGAAAGACTAAGCTAA :: 2.05

GET /value?item= `TAGGCTAGGTCATTCAGGGGCCAGTATAGAAAGC` &field=PBM binding z-score returns 2.47

GET /value?item= `CCAGAGAGGTGAGAAGGTAACTCAGCCTCGATTA` &field=PBM binding z-score returns 1.36

* * *

- Test system: PPARg:RXRa 270nM:90nM, anti-RXR (NR concentration 270 nM, RXRa partner concentration 90 nM)
- Procedure Details: PBM binding z-score (relative to random genomic background probes); higher = stronger binding; sequences stand for … in GC…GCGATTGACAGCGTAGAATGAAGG
Quantity Name: PBM binding z-score
Answer with the value's number alone.

GET /value?item= `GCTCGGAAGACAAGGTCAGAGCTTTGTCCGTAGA` &field=PBM binding z-score returns 0.519

GET /value?item= `TTACCAAGGTGAAAGTCGTTGATCCCTCTGTAGA` &field=PBM binding z-score returns 1.61

GET /value?item= `GTACCAAGGTGAATAGGTCGTTGAAGAGTAGGCG` &field=PBM binding z-score returns 2.06

GET /value?item= `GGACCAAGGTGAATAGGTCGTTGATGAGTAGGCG` &field=PBM binding z-score returns 1.59

GET /value?item= `ATCGAAAGGTCGAATGTGAGTATACCCACCCGAA` &field=PBM binding z-score returns 3.02

GET /value?item= `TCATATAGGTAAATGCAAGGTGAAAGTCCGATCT` &field=PBM binding z-score returns 2.44

GET /value?item= `CGAACTAGGTCATAACAGGACAGTGAAGGATGAT` &field=PBM binding z-score returns 6.14

* * *

- Test system: PPARg DBDmut IVT, anti-PPARg (DBD mutation: PPARg1 K132A/R137A, NR concentration 270 nM)
- Procedure Details: PBM binding z-score (relative to random genomic background probes); higher = stronger binding; sequences stand for … in GC…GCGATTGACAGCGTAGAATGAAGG
Quantity Name: PBM binding z-score
Answer with the value's number alone.

// assay PPARg DBDmut IVT, anti-PPARg (DBD mutation: PPARg1 K132A/R137A, NR concentration 270 nM), entry `CCTACTGTGCCATCAGGTCATTGATATCAACGTT` , PBM binding z-score value = 1.29

// assay PPARg DBDmut IVT, anti-PPARg (DBD mutation: PPARg1 K132A/R137A, NR concentration 270 nM), entry `TCTAGCAGGCCAGCGGGTCACTCAAGAGGTACGG` , PBM binding z-score value = -0.723

// assay PPARg DBDmut IVT, anti-PPARg (DBD mutation: PPARg1 K132A/R137A, NR concentration 270 nM), entry `CCTTACGGGTCACTCCAGGTTATAGAATCGGAGT` , PBM binding z-score value = 0.0238

// assay PPARg DBDmut IVT, anti-PPARg (DBD mutation: PPARg1 K132A/R137A, NR concentration 270 nM), entry `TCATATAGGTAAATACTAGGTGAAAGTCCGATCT` , PBM binding z-score value = 1.37

// assay PPARg DBDmut IVT, anti-PPARg (DBD mutation: PPARg1 K132A/R137A, NR concentration 270 nM), entry `GCTAGTTGGTCAGTAATAGGTCACACACCGGTCG` , PBM binding z-score value = -0.765

// assay PPARg DBDmut IVT, anti-PPARg (DBD mutation: PPARg1 K132A/R137A, NR concentration 270 nM), entry `CGTCCAATGTCAGAGAGGTCAGTGAATGCCGAGT` , PBM binding z-score value = -0.584

* * *

- Tested on: VDR:RXRa (NR concentration 270 nM, RXRa partner concentration 90 nM)
- Procedure Details: PBM binding z-score (relative to random genomic background probes); higher = stronger binding; sequences stand for … in GC…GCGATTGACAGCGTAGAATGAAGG
Quantity Name: PBM binding z-score
Answer with the value's number alone.

Please review the following examples before continuing.
AGAATGAGGTTATTAAGATCAGTGAATTGCGGTC :: 2.5
ATCTCTAGGTAACAGTTCAGTGAATCCCGAGGAT :: 0.208
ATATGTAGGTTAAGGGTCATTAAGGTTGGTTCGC :: 6.19
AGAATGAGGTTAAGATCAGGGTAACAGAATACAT :: 2
ACTAGCAGGCCAAGTTTGGGTGACTCAAACAAAG :: -0.388
TCTAATAGTTGATTAGGGCAACCGAAACAGCGGA :: 0.582
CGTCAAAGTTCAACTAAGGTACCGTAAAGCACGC :: 4.4
ATCGAAAGGTCGTGTGGTGAGTATACAGAAAGGC :: 3.66
CCTACCAGGCCAATCTGGGTCACTCAAGGCTTGA :: 0.999
ATACCAAGGTGATCATGAGGTCGTTGATACTAAC :: 3.38

GET /value?item= `CCGAGTAGGTTATGGGGCATCCAGGCAACGGTGA` &field=PBM binding z-score returns -0.0665

GET /value?item= `TCTTGTATATCAAAGGTTAAGAAAGCCGAAGCCT` &field=PBM binding z-score returns 1.91

GET /value?item= `TCTTGTCGATCAACAGGAGGTTAAGAAAGATCGA` &field=PBM binding z-score returns 0.427

GET /value?item= `CAAACTAGGTCACCGGAAGGTCAAAGTACGCATG` &field=PBM binding z-score returns 6.17

GET /value?item= `TCTTGTAGAACAAGCAGGTTAAGAAAGCCTGAGT` &field=PBM binding z-score returns 0.279

GET /value?item= `TAGCCTGGGTCATGCGGGCCAGTATAGTGTCGGC` &field=PBM binding z-score returns 3.07

GET /value?item= `CTCGAAAGGTCGGATGAGGTGAGTATACGGATAA` &field=PBM binding z-score returns 2.74

GET /value?item= `GCGACTGGGGCAAAGCAGGTTACCTTAAGGTTGG` &field=PBM binding z-score returns 0.0193

GET /value?item= `CCGAGTTGGTTATGGGGCATTCAGGCAACGGTGA` &field=PBM binding z-score returns 0.221

GET /value?item= `CTCGAAAGGTCGTGCACAGGTGAGTATACCAAAC` &field=PBM binding z-score returns 3.8

GET /value?item= `TCTTGTAGATCAAAGGTTATGAAAGCCGAAGCCT` &field=PBM binding z-score returns 1.25

GET /value?item= `ACTTACGGGTCAACGAGGTTAGAGCACGCGTATA` &field=PBM binding z-score returns 7.15

GET /value?item= `ATATGTCGGTTAGCTGGGGTCATTCAGACTAGGC` &field=PBM binding z-score returns 5.12

GET /value?item= `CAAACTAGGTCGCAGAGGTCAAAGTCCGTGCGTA` &field=PBM binding z-score returns 7.14

GET /value?item= `ATCGAAAGGTCGAAGGTGGGTATACCCACCCGAA` &field=PBM binding z-score returns 2.54

GET /value?item= `CCTACTGGGCCATTCAGAGGTCCTTGATCATATG` &field=PBM binding z-score returns -0.591

* * *

- Tested on: RARg homodimer (NR concentration 270 nM)
- Procedure Details: PBM binding z-score (relative to random genomic background probes); higher = stronger binding; sequences stand for … in GC…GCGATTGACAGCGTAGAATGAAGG
Quantity Name: PBM binding z-score
Answer with the value's number alone.

Please review the following examples before continuing.
GCTGCTATGTCAGGTTGGTCAGCTAACGGGTACG :: 0.0688
AGTCAAAGTTCATCTAGGTAACGTACGATATGCT :: 5.82
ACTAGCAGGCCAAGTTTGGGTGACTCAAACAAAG :: -0.216

GET /value?item= `CCTACTGGGACAAAGGTCATTGATTCCAATGCTC` &field=PBM binding z-score returns 4.6

GET /value?item= `CCTATTAGTTGACCATAAGGGCAACGGAAGCTCG` &field=PBM binding z-score returns 0.865

GET /value?item= `CGTCAAAGTTAAACTAAGGTAACGTAAAGCACGC` &field=PBM binding z-score returns 0.659

GET /value?item= `ATCTCTAGGTAACAAGTTCAGTAAAAGAGAGGAC` &field=PBM binding z-score returns 1.6

GET /value?item= `GCGACTGGGGCAAAGCAGGTTACCATGAGGTTGG` &field=PBM binding z-score returns 0.674
